meta.source: paper PMC10914731

- Format: in vitro ADME, Rat
- reported conditions: clearance in microsomes
- Experimental: The kinetics of compound degradation in liver microsomes is assessed in an assay with 1 µmol/l of compound and 0.5 mg/ml liver microsomes in a medium of 100 mM Tris-HCl pH 7.5, 6.5 mM MgCl2 and 1 mM NADPH at 37 °C. The reaction is stopped at multiple time points by adding acetonitrile. After centrifugation, the compound concentration is measured in the supernatants by high-performance liquid chromatography (HPLC) tandem mass spectrometry (MS/MS). […]
Where a SMILES comes first, the peptide text is derived from it. [ ]: non-standard residue; d: D form. NMeTrp(1-Me) = CN[C@@H](Cc1cn(C)c2ccccc12)C(=O)O; NMeLeu(5-OH,4R) = CN[C@@H](C[C@@H](C)CO)C(=O)O; Phe(βR-OMe) = CO[C@H](c1ccccc1)[C@H](N)C(=O)O; NMeL = CN[C@@H](CC(C)C)C(=O)O
result type: Microsomal Stability Rat

Quick check: Microsomal Stability Rat of CO[C@H](c1ccccc1)[C@@H]1NC(=O)[C@H](C)NC(=O)[C@H](C[C@@H](C)CO)N(C)C(=O)[C@H](Cc2cn(Cc3cn(CCOCCn4cc(Cn5cc(C[C@@H]6NC(=O)[C@H](C(C)C)NC(=O)[C@H](CC(C)C)N(C)C(=O)[C@H](C(C)C)NC(=O)[C@H]([C@H](OC)c7ccccc7)NC(=O)[C@H](C)NC(=O)[C@H](C[C@@H](C)CO)N(C)C6=O)c6ccccc65)nn4)nn3)c3ccccc23)NC(=O)[C@H](C(C)C)NC(=O)[C@H](CC(C)C)N(C)C(=O)[C@H](C(C)C)NC1=O [Compound 6] ? < 23 %Qh

Item: CO[C@H](c1ccccc1)[C@@H]1NC(=O)[C@H](C)NC(=O)[C@H](C[C@@H](C)CO)N(C)C(=O)[C@H](Cc2cn(C)c3ccccc23)N(C)C(=O)[C@H](CCC(=O)N(C)C)NC(=O)[C@H](CC(C)C)N(C)C(=O)[C@H](C(C)C)NC1=O [SI-76] (cyclo(A[Phe(βR-OMe)]V[NMeL]E(NMe2)[NMeTrp(1-Me)][NMeLeu(5-OH,4R)])) 78 %Qh

Item: COC(c1ccccc1)C1NC(=O)C(C)NC(=O)C(CC(C)CO)N(C)C(=O)C(Cc2cn(CC=CCn3cc(CC4NC(=O)C(C(C)C)NC(=O)C(CC(C)C)N(C)C(=O)C(C(C)C)NC(=O)C(C(OC)c5ccccc5)NC(=O)C(C)NC(=O)C(CC(C)CO)N(C)C4=O)c4ccccc43)c3ccccc23)NC(=O)C(C(C)C)NC(=O)C(CC(C)C)N(C)C(=O)C(C(C)C)NC1=O (stereo not drawn) [Compound 15] < 23 %Qh

---

- Test system: Caco-2 monolayers
- method description: in vitro
- reported conditions: mean value of P(A−B) and P(B−A)
*1 amine or outer side, *2 acyl side, *3 side chain or, on linkers, in order; H or OH if unused. Where a SMILES comes first, the peptide text is derived from it. [ ]: non-standard residue; d: D form. ξ: configuration not given here. X3 = C#CCOc1ccc([C@@H](OC)[C@H](N[*:1])C(=O)[*:2])cc1; X1 = C#CCn1cc(C[C@H](N[*:1])C(=O)[*:2])c2ccccc21; X7 = C=CCn1cc(C[C@H](N[*:1])C(=O)[*:2])c2ccccc21; NMeLeu(5-OH,4R) = CN[C@@H](C[C@@H](C)CO)C(=O)O; Phe(βR-OMe) = CO[C@H](c1ccccc1)[C@H](N)C(=O)O; ξNMeTrp(1-Me) = CNC(Cc1cn(C)c2ccccc12)C(=O)O; Trp(1-Me) = Cn1cc(C[C@H](N)C(=O)O)c2ccccc21; X8 = CC(CO)C[C@@H](C(=O)[*:2])N(C)[*:1]; NMeL = CN[C@@H](CC(C)C)C(=O)O; Pra = C#CC[C@H](N)C(=O)O; ξV = CC(C)C(N)C(=O)O
So I've got a bunch of molecules here, and I need their Caco-2 Int. Perm values.

Quick check: Caco-2 Int. Perm of C#CC[C@@H]1NC(=O)[C@H](CC(C)C)N(C)C(=O)[C@H](C(C)C)NC(=O)[C@H]([C@H](OC)c2ccccc2)NC(=O)[C@H](C)NC(=O)[C@H](C[C@@H](C)CO)N(C)C(=O)[C@H](Cc2cn(C)c3ccccc23)NC1=O [Compound 10] (cyclo(A[Phe(βR-OMe)]V[NMeL][Pra][Trp(1-Me)][NMeLeu(5-OH,4R)])) ? 7.1 10-6 cm s-1

Item: C#CCn1cc(C[C@@H]2NC(=O)[C@H](C(C)C)NC(=O)[C@H](CC(C)C)N(C)C(=O)[C@H](C(C)C)NC(=O)[C@H](Cc3ccccc3)NC(=O)[C@H](C)NC(=O)[C@H](C[C@@H](C)CO)N(C)C2=O)c2ccccc21 [SI-72] (cyclo(AFV[NMeL]V[X1][NMeLeu(5-OH,4R)])) 6.4 10-6 cm s-1

Item: C=CCn1cc(C[C@@H]2NC(=O)[C@H](C(C)C)NC(=O)[C@H](CC(C)C)N(C)C(=O)[C@H](C(C)C)NC(=O)[C@H]([C@H](OC)c3ccccc3)NC(=O)[C@H](C)NC(=O)[C@H](C[C@@H](C)CO)N(C)C2=O)c2ccccc21 [Compound 13] (cyclo(A[Phe(βR-OMe)]V[NMeL]V[X7][NMeLeu(5-OH,4R)])) 10.7 10-6 cm s-1

Item: C#CCOc1ccc([C@@H](OC)[C@@H]2NC(=O)[C@@H](C)NC(=O)[C@H](CC(C)CO)N(C)C(=O)C(Cc3cn(C)c4ccccc34)N(C)C(=O)C(C(C)C)NC(=O)[C@H](CC(C)C)N(C)C(=O)[C@@H](C(C)C)NC2=O)cc1 (stereo partly shown) [SI-64] (cyclo([NMeL][ξV][ξNMeTrp(1-Me)][X8][dA][X3][dV])) 29.0 10-6 cm s-1

Item: CCCCCn1cc(C[C@@H]2NC(=O)[C@H](CC(C)C)N(C)C(=O)[C@H](C(C)C)NC(=O)[C@H]([C@H](OC)c3ccccc3)NC(=O)[C@H](C)NC(=O)[C@H](C[C@@H](C)CO)N(C)C(=O)[C@H](Cc3cn(C)c4ccccc34)NC2=O)nn1 5.6 10-6 cm s-1

Item: CO[C@H](c1ccccc1)[C@@H]1NC(=O)[C@H](C)NC(=O)[C@H](C[C@@H](C)CO)N(C)C(=O)[C@H](Cc2cn(Cc3cn(CCOCCn4cc(Cn5cc(C[C@@H]6NC(=O)[C@H](C(C)C)NC(=O)[C@H](CC(C)C)N(C)C(=O)[C@H](C(C)C)NC(=O)[C@H]([C@H](OC)c7ccccc7)NC(=O)[C@H](C)NC(=O)[C@H](C[C@@H](C)CO)N(C)C6=O)c6ccccc65)nn4)nn3)c3ccccc23)NC(=O)[C@H](C(C)C)NC(=O)[C@H](CC(C)C)N(C)C(=O)[C@H](C(C)C)NC1=O 2.1 10-6 cm s-1

Item: COC(c1ccccc1)C1NC(=O)C(C)NC(=O)C(CC(C)CO)N(C)C(=O)C(Cc2cn(CCCCn3cc(CC4NC(=O)C(C(C)C)NC(=O)C(CC(C)C)N(C)C(=O)C(C(C)C)NC(=O)C(C(OC)c5ccccc5)NC(=O)C(C)NC(=O)C(CC(C)CO)N(C)C4=O)c4ccccc43)c3ccccc23)NC(=O)C(C(C)C)NC(=O)C(CC(C)C)N(C)C(=O)C(C(C)C)NC1=O (stereo not shown) 1.3 10-6 cm s-1

---

- assayed target: His6-tagged ClpC1-NTD substrate, M. smegmatis ClpC1P1P2 (UniProt A0R574+P9WPC9)
- method description: biochemical
- Assay type: biochemical
- reported conditions: Msm; mean of the measurements; read-out: 1-Dmax, Mean
result type: 1-Dmax (percent substrate remaining at maximal degradation) (%)
The figure you give is taken to be in %; do not add the unit.

Look up 1-Dmax (percent substrate remaining at maximal degradation) with His6-tagged ClpC1-NTD substrate, M. smegmatis ClpC1P1P2 (UniProt A0R574+P9WPC9) for this compound: CO[C@H](c1ccccc1)[C@@H]1NC(=O)[C@H](C)NC(=O)[C@H](C[C@@H](C)CO)N(C)C(=O)[C@H](Cc2cn(Cc3cn(CCCCCn4cc(Cn5cc(C[C@H]6C(=O)N(C)[C@@H](C[C@@H](C)CO)C(=O)N[C@@H](C)C(=O)N[C@@H]([C@H](OC)c7ccccc7)C(=O)N[C@@H](C(C)C)C(=O)N(C)[C@@H](CC(C)C)C(=O)N[C@@H](C(C)C)C(=O)N6C)c6ccccc65)nn4)nn3)c3ccccc23)N(C)C(=O)[C@H](C(C)C)NC(=O)[C@H](CC(C)C)N(C)C(=O)[C@H](C(C)C)NC1=O [SI-57] 67

Item: CO[C@H](c1ccccc1)[C@@H]1NC(=O)[C@H](C)NC(=O)[C@H](C[C@@H](C)CO)N(C)C(=O)[C@H](Cc2cn(Cc3cn(CCOCCn4cc(Cn5cc(C[C@@H]6NC(=O)[C@H](C(C)C)NC(=O)[C@H](CC(C)C)N(C)C(=O)[C@H](C(C)C)NC(=O)[C@H]([C@H](OC)c7ccccc7)NC(=O)[C@H](C)NC(=O)[C@H](C[C@@H](C)CO)N(C)C6=O)c6ccccc65)nn4)nn3)c3ccccc23)NC(=O)[C@H](C(C)C)NC(=O)[C@H](CC(C)C)N(C)C(=O)[C@H](C(C)C)NC1=O [Compound 6] 78

Item: CO[C@H](c1ccccc1)[C@@H]1NC(=O)[C@H](C)NC(=O)[C@H](C[C@@H](C)CO)N(C)C(=O)[C@H](Cc2cn(C)c3ccccc23)N(C)C(=O)[C@H](Cc2cn(CCOCCOCCn3cc(C[C@@H]4NC(=O)[C@H](CC(C)C)N(C)C(=O)[C@H](C(C)C)NC(=O)[C@H]([C@H](OC)c5ccccc5)NC(=O)[C@H](C)NC(=O)[C@H](C[C@@H](C)CO)N(C)C(=O)[C@H](Cc5cn(C)c6ccccc56)N(C)C4=O)nn3)nn2)NC(=O)[C@H](CC(C)C)N(C)C(=O)[C@H](C(C)C)NC1=O [Compound 21] 92

Item: CO[C@H](c1ccccc1)[C@@H]1NC(=O)[C@H](C)NC(=O)[C@H](C[C@@H](C)CO)N(C)C(=O)[C@H](Cc2cn(Cc3cn(CCCCCn4cc(Cn5cc(C[C@@H]6NC(=O)[C@H](C(C)C)NC(=O)[C@H](CC(C)C)N(C)C(=O)[C@H](C(C)C)NC(=O)[C@H]([C@H](OC)c7ccccc7)NC(=O)[C@H](C)NC(=O)[C@H](C[C@@H](C)CO)N(C)C6=O)c6ccccc65)nn4)nn3)c3ccccc23)NC(=O)[C@H](C(C)C)NC(=O)[C@H](CC(C)C)N(C)C(=O)[C@H](C(C)C)NC1=O [Compound 9] 54
